Data provenance: patent US20250368633A1

inhibition at 1 µM for assorted compounds
- MEASUREMENT TARGET: RIPK1 kinase (Homo sapiens, UniProt Q13546)
- Construct: purchased Promega VA7593
- ASSAY OVERVIEW: In vitro RIPK1 kinase activity assay (ADP-Glo), inhibition by compounds at 1 μM
- Format: biochemical
- MEASUREMENT CONTEXT: compound 1 μM; ATP 10 μM; MBP substrate 100 μg/mL; read-out: RIPK1 kinase activity inhibition rate range

Worked cases, answers included:
CN1C(=O)C(NC(=O)C(=O)NCCc2ccccc2)CCc2ccc(Br)cc21 (stereo not shown) | ≥ 75%
C[C@@H](CNC(=O)C(=O)N[C@H]1COc2ccc(C#CC3(O)COC3)cc2N(C)C1=O)c1ccccc1 | ≥ 75%
CN1C(=O)[C@@H](NC(=O)C(=O)NCCc2cc(F)cc(F)c2)COc2ccc(C#CCCO)cc21 | ≥ 75%
CN1C(=O)[C@@H](NC(=O)C(=O)NCCc2cccc(F)c2)COc2ccc(C#CCN3CCC(O)C3)cc21 (mixture of isomers) | ≥ 75%
CN1C(=O)[C@@H](NC(=O)C(=O)NCCc2ccccc2)COc2ccc(C#CC3CCN(CCOCCOCC(=O)O)CC3)cc21 [Example 54, 2,2,2-trifluoroacetate] | 50 to 74%
C[C@@H](NC(=O)C(=O)N[C@H]1COc2ccc(C#CC3COC3)cc2N(C)C1=O)c1ccccc1 | ≥ 75%
C#CCOc1ccc2c(c1)N(C)C(=O)[C@@H](NC(=O)C(=O)NCCc1ccccc1)CO2 | ≥ 75%
CN1C(=O)[C@@H](NC(=O)C(=O)NCCc2cccc(F)c2)COc2ccc(C#CCN3CCNC(=O)C3)cc21 | 50 to 74%
CN1C(=O)[C@H](NC(=O)C(=O)NCCc2ccccc2)COc2ccc(C#CC3(O)COC3)cc21 | 50 to 74%
CN1C(=O)[C@@H](NC(=O)C(=O)NCCc2ccccc2)COc2ccc(C#Cc3ccncc3)cc21 | ≥ 75%

// next item, inhibition at 1 µM requested
The compound CN1C(=O)[C@@H](NC(=O)C(=O)NCCc2ccccc2)COc2ccc(C#CC3CCN(CC#N)CC3)cc21 , when measured on RIPK1 kinase (Homo sapiens, UniProt Q13546), yielded inhibition at 1 µM of 50 to 74%

====

- MEASUREMENT TARGET: RIPK1 kinase (Homo sapiens, UniProt Q13546)
- Construct: purchased Promega VA7593
- Sequence (Q13546 1-671): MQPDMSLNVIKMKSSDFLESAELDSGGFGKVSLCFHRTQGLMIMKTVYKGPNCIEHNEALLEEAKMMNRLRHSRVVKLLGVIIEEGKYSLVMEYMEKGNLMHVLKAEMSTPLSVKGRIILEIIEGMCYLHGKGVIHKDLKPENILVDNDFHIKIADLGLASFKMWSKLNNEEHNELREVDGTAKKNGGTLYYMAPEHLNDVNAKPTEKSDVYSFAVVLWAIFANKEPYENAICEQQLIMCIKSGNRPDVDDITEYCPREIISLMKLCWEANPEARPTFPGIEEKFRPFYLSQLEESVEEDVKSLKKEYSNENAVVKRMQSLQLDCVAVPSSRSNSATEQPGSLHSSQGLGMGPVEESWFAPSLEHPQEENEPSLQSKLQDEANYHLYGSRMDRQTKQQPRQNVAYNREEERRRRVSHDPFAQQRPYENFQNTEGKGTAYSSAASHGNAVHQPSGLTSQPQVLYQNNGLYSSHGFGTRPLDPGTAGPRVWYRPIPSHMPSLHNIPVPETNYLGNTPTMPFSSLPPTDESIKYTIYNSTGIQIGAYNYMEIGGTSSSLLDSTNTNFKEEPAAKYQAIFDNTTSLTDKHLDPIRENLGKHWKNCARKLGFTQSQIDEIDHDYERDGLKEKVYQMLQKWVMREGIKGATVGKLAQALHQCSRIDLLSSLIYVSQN
- ASSAY OVERVIEW: In vitro RIPK1 kinase activity assay (ADP-Glo), inhibition by compounds at 1 μM
- Format: biochemical
- MEASUREMENT CONTEXT: compound 1 μM; ATP 10 μM; MBP substrate 100 μg/mL; read-out: RIPK1 kinase activity inhibition rate range
- Protocol: RIPK1 kinase activity was assayed using the ADP-Glo assay and RIPK1 kinase reaction system (Promega, catalog number: VA7593). The RIPK1 kinase activity assay was performed according to the Promega kit manual. The experimental method was briefly described as below. The concentration of RIPK1 kinase in the RIPK1 kinase reaction system was determined by kinase titration and S/B10. […] The chemiluminescent signal was read by a microplate reader and the inhibition rate of kinase activity was calculated.
inhibition at 1 µM for assorted compounds

Worked cases, answers included:
COCC#Cc1ccc2c(c1)N(C)C(=O)[C@@H](NC(=O)C(=O)NCCc1ccccc1)CO2 [Example 52] | ≥ 75%
Cc1cccc(/C=C/c2ccc3c(c2)N(C)C(=O)[C@@H](NC(=O)C(=O)NCCc2ccccc2)CO3)c1 [Example 11] | ≥ 75%
CN1C(=O)[C@@H](NC(=O)C(=O)NCCc2ccccc2)COc2ccc(C#Cc3cnc4cccnn34)cc21 [Example 25] | ≥ 75%

The compound CN1C(=O)[C@@H](NC(=O)C(=O)NCCc2ccccc2)COc2ccc(C#CCCO)cc21 [Example 31] , when measured on RIPK1 kinase (Homo sapiens, UniProt Q13546), yielded inhibition at 1 µM of ≥ 75%

The compound C[C@@H](NC(=O)C(=O)N[C@H]1COc2ccc(C#CCN(C)C)cc2N(C)C1=O)c1ccccc1 [Example 146] , when measured on RIPK1 kinase (Homo sapiens, UniProt Q13546), yielded inhibition at 1 µM of 50 to 74%

The compound CN1C(=O)[C@@H](NC(=O)C(=O)NCCc2ccccc2)COc2ccc(C#CCN3CCC(O)CC3)cc21 [Example 81] , when measured on RIPK1 kinase (Homo sapiens, UniProt Q13546), yielded inhibition at 1 µM of ≥ 75%

The compound CN1C(=O)C(NC(=O)C(=O)NCCc2ccccc2)CCc2cc(Br)ccc21 (stereo not drawn) [Example 63] , when measured on RIPK1 kinase (Homo sapiens, UniProt Q13546), yielded inhibition at 1 µM of 25 to 49%

The compound CC(NC(=O)C(=O)N[C@H]1COc2ccc(C#CCCO)cc2N(C)C1=O)c1ccccc1 (mixture of isomers) [Example 41] , when measured on RIPK1 kinase (Homo sapiens, UniProt Q13546), yielded inhibition at 1 µM of ≥ 75%

The compound C[C@@H](NC(=O)C(=O)N[C@H]1COc2ccc(C#CCn3ccnc3)cc2N(C)C1=O)c1ccccc1 [Example 134] , when measured on RIPK1 kinase (Homo sapiens, UniProt Q13546), yielded inhibition at 1 µM of 50 to 74%

The compound CC(Cc1ccccc1)NC(=O)C(=O)N[C@H]1COc2ccc(C#CCCO)cc2N(C)C1=O (mixture of isomers) [Example 37] , when measured on RIPK1 kinase (Homo sapiens, UniProt Q13546), yielded inhibition at 1 µM of 50 to 74%

The compound C[C@@H](NC(=O)C(=O)N[C@H]1COc2ccc(C#CC3CN(N=O)C3)cc2N(C)C1=O)c1ccccc1 [Example 151] , when measured on RIPK1 kinase (Homo sapiens, UniProt Q13546), yielded inhibition at 1 µM of 25 to 49%

The compound CN1C(=O)[C@@H](NC(=O)C(=O)NCCc2ccccc2)COc2ccc(C#CC3(O)CN(C=O)C3)cc21 [Example 92] , when measured on RIPK1 kinase (Homo sapiens, UniProt Q13546), yielded inhibition at 1 µM of 50 to 74%

The compound CN1C(=O)[C@@H](NC(=O)C(=O)NCCc2ccccc2F)COc2ccc(C#CCCO)cc21 [Example 33] , when measured on RIPK1 kinase (Homo sapiens, UniProt Q13546), yielded inhibition at 1 µM of ≥ 75%

The compound CN1C(=O)[C@@H](NC(=O)C(=O)NCCc2ccccc2)COc2ccc(C#CCC3(O)COC3)cc21 [Example 79] , when measured on RIPK1 kinase (Homo sapiens, UniProt Q13546), yielded inhibition at 1 µM of 50 to 74%

The compound CN1C(=O)[C@@H](NC(=O)C(=O)NCCc2ccsc2)COc2ccccc21 [Example 98] , when measured on RIPK1 kinase (Homo sapiens, UniProt Q13546), yielded inhibition at 1 µM of ≥ 75%
